- Tested on: P. stutzeri clinical isolate 13
- methodNotes: Routine antibiogram by disk diffusion assay
- Type: cell-based, Pseudomonas stutzeri
- conditions: clinical isolate P. stutzeri 13 expressing DIM-1
readout: susceptibility of P. stutzeri 13

Would you please look over these solved cases?
>>> result("CO/N=C(\\C(=O)N[C@@H]1C(=O)N2C(C(=O)[O-])=C(C[n+]3cccc4c3CCC4)CS[C@H]12)c1csc(N)n1 [cefpirome]")
"reduced susceptibility"
>>> result("NC[C@H]1O[C@H](O[C@H]2[C@H](O)[C@@H](O[C@H]3O[C@H](CO)[C@@H](O)[C@H](N)[C@H]3O)[C@H](N)C[C@@H]2N)[C@H](N)C[C@@H]1O [tobramycin]")
"resistant"
>>> result("O=C(N[C@H](CO)[C@H](O)c1ccc([N+](=O)[O-])cc1)C(Cl)Cl [chloramphenicol]")
"resistant"
>>> result("CO/N=C(\\C(=O)N[C@@H]1C(=O)N2C(C(=O)[O-])=C(C[N+]3(C)CCCC3)CS[C@H]12)c1csc(N)n1 [cefepime]")
"reduced susceptibility"

Problem: // query susceptibility of P. stutzeri 13 value for entry CCN1CCN(C(=O)N[C@@H](C(=O)N[C@@H]2C(=O)N3[C@@H]2SC(C)(C)[C@@H]3C(=O)O)c2ccccc2)C(=O)C1=O [piperacillin]
Result: resistant

Just for reference, patent US20120219952A1 is where these values come from.
